biological target: human KDR (human, UniProt P35968 20-1356); assay: cell-based or functional assay
Sequence (P35968 20-1356): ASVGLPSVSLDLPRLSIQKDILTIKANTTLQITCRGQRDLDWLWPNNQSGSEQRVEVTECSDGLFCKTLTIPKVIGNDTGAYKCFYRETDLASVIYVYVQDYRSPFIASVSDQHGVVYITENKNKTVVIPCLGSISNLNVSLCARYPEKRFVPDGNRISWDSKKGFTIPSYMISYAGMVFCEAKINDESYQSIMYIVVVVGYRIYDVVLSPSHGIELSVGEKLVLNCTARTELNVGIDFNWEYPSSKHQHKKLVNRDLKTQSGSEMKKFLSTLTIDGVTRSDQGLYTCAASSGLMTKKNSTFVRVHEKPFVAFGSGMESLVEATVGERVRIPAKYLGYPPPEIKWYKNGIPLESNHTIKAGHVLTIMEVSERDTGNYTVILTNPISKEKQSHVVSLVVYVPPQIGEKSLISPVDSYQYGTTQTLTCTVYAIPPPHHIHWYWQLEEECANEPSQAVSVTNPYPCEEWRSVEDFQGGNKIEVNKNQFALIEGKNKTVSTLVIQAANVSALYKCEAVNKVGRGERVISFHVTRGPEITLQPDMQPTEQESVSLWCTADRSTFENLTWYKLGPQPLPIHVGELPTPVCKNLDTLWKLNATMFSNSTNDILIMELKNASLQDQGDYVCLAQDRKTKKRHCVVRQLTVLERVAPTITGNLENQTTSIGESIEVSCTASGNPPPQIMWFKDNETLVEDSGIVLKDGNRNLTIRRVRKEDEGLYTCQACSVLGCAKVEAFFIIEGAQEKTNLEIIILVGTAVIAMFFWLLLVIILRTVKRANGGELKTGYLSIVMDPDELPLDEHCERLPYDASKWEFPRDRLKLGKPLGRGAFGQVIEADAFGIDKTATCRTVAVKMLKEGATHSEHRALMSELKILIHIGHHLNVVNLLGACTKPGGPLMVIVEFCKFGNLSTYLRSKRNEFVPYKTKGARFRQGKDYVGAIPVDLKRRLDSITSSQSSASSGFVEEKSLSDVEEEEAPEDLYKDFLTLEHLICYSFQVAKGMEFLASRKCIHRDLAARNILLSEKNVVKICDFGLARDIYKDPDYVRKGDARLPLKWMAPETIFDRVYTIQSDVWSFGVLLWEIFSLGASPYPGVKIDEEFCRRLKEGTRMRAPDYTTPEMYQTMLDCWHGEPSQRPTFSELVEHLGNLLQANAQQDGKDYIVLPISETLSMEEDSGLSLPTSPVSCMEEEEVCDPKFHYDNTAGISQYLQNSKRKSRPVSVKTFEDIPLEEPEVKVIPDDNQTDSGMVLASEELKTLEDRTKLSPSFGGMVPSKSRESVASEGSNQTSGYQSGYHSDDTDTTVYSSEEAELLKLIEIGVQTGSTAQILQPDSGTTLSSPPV
measured_quantity: HUVEC survival, Maximum Inhibition at 50 nM (% Inhibition), N = 1 (%)
Numbers only, in %.

Field: example entries. Status: answers known.
binder="33C3 (antibody, V domains shown, Fully human monoclonal antibody from a XenoMouse hybridoma (IgG2 or IgG4 strain), purified) VH: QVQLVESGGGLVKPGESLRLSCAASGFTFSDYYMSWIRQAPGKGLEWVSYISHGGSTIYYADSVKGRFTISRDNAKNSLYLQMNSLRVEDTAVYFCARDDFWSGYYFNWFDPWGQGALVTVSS VL: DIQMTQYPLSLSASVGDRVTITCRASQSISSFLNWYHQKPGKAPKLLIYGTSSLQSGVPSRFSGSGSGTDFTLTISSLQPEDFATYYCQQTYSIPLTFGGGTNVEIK" reported_measurement=106
binder="24B3 (antibody, V domains shown, Fully human monoclonal antibody from a XenoMouse hybridoma (IgG2 or IgG4 strain), purified) VH: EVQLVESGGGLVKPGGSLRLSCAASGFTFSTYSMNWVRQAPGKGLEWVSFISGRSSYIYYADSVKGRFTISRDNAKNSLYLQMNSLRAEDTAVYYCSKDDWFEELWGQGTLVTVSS VL: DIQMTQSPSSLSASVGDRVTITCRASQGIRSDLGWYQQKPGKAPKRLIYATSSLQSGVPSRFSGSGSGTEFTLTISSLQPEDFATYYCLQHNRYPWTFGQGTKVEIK" reported_measurement=97

Now look at this entry.
Ask: Dear colleague, I am looking for the recorded HUVEC survival, Maximum Inhibition at 50 nM (% Inhibition), N = 1 of the following binder: 32F4 (antibody, V domains shown, Fully human monoclonal antibody from a XenoMouse hybridoma (IgG2 or IgG4 strain), purified) VH: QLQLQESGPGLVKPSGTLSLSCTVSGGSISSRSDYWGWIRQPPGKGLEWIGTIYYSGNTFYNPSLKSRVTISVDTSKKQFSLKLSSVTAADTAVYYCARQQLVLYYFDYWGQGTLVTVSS VL: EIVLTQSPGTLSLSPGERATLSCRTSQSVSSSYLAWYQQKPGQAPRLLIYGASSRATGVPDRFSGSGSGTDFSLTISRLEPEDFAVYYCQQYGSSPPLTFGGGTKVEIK
Result: 91
